Cited source for all entries: patent US20170008888A1

- Assay system: CECR2 (Homo sapiens, UniProt Q9BXF3)
- Construct: T7 phage strains displaying bromodomains were grown in parallel
- Sequence (Q9BXF3 434-538 limits assumed, species assumed): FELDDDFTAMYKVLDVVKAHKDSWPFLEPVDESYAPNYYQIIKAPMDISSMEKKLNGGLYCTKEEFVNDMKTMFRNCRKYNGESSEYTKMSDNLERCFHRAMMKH
- Experiment summary: Bromodomain binding assay: CECR2
Measure name: Kd

CCOc1cc(C(=O)N2CCC(N3CCCC3)CC2)ccc1Nc1cc2c(cn1)N(C)C(=O)c1ccccc1N2C : > 20 µM

Proceed to the following item.
Need Kd, item "CCOc1cc(C(=O)N[C@H]2CC[C@H](O)CC2)ccc1Nc1cc2c(cn1)N(C)C(=O)c1ccccc1N2C" > 20 µM

====

- Assay system: TAO2 (Homo sapiens, UniProt Q9UL54)
- Construct: screened for activity against several kinases in Jurkat cells; endogenous in cells; host or cells: Jurkat cell lysate
- Sequence (Q9UL54 whole entry): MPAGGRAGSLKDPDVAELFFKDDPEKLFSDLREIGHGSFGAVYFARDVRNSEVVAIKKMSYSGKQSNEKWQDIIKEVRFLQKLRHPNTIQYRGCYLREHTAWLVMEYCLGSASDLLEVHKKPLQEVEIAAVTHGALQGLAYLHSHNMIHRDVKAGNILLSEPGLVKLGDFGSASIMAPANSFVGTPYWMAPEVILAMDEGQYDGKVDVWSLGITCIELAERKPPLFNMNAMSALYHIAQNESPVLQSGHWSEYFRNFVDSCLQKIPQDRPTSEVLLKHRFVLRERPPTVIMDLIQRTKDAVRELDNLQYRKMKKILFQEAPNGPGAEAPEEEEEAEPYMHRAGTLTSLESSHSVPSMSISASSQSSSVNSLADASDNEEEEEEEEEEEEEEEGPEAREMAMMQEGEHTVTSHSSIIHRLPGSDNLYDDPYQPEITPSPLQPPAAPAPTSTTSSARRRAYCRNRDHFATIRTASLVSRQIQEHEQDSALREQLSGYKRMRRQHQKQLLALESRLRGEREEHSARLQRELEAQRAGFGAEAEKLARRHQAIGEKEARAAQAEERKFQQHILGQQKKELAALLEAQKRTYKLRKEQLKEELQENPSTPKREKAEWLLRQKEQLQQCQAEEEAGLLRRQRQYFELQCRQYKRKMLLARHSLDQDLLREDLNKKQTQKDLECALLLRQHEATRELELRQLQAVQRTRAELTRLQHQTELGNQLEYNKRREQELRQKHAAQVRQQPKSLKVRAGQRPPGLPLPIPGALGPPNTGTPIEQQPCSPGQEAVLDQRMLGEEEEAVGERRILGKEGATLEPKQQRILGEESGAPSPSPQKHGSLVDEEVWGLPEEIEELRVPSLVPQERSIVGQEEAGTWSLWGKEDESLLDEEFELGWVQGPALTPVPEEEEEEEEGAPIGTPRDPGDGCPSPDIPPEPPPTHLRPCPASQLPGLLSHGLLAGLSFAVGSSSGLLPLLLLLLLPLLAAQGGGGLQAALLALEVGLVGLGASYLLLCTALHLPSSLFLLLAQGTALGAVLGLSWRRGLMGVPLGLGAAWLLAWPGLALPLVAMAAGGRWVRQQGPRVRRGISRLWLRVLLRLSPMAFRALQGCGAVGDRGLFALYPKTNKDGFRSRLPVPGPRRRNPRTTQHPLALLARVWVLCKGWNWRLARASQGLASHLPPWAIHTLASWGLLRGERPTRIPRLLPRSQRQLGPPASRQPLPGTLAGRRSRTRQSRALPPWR
- Experiment summary: Probe-based (AX9989) kinase profiling in Jurkat lysate: TAO2
- Assay type: binding
- Stated conditions: screening concentration 10 μM; read-out: TAO2 Inhibition % at indicated screening concentration
Quick reference: inhibition at 10 µM of the listed items.

Given the entry "CCOc1cc(C(=O)N2CCN(C3CCN(C)CC3)CC2)ccc1Nc1cc2c(cn1)N(C)C(=O)c1ccccc1O2" , report its measured inhibition at 10 µM. ≤ 35%

I am curious: what inhibition at 10 µM value has been reported for CCOc1cc(C(=O)N2CCC(N3CCN(C)CC3)CC2)ccc1Nc1cc2c(cn1)N(C)C(C(F)(F)F)c1ccccc1N2C (centres unmarked) ? ≤ 35%

Recorded inhibition at 10 µM for "CC(C)Oc1cc(C(=O)N2CCC[C@H](O)C2)ccc1Nc1cc2c(cn1)N(C)C(=O)c1ccccc1N2C" , please? ≤ 35%

// query inhibition at 10 µM value for entry "CCOc1cc(C(=O)N2CCN(C3CCN(C)CC3)CC2)ccc1Nc1cc2c(cn1)N(C)C(=O)c1c(F)cccc1O2" ≤ 35%

Consider the molecule shown here: "CCOc1cc(C(=O)N2CCC(N3CCCC3)CC2)ccc1Nc1cc2c(cn1)N(C)C(=O)N1C=CC=CC1=N2" What is its recorded inhibition at 10 µM? ≤ 35%

Which measured inhibition at 10 µM value corresponds to "CCOc1cc(C(=O)N2CCN(C3CCN(C)CC3)CC2)ccc1Nc1cc2c(cn1)N(C)C(=N)c1ccccc1N2C" ? ≤ 35%

inhibition at 10 µM for "CCOc1cc(C(=O)N2CCOCC2)ccc1Nc1cc2c(cn1)N(C)C(=O)c1ccccc1S2(=O)=O" ? ≤ 35%

Recorded inhibition at 10 µM of "CN1C(=O)c2c(F)ccc(F)c2Oc2cc(N[C@H]3CC[C@H](O)CC3)ncc21" , please. 50 to 75%

Data request, read-out inhibition at 10 µM, for "CN1C(=O)c2ccccc2N(C)c2cc(N[C@H]3C[C@H](O)C3)ncc21" 35 to 50%

Which inhibition at 10 µM value belongs to "C[C@@H]1C[C@H](Nc2cc3c(cn2)N(C)C(=O)c2ccccc2N3C)CC[C@H]1O" ? ≤ 35%

I'd like to know its inhibition at 10 µM. The molecule in question is CCOc1cc(C(=O)N2CCN(C3CCN(C)CC3)CC2)ccc1Nc1cc2c(cn1)N(C)C(=O)c1ccccc1[S+]2[O-] (centres unmarked) ≤ 35%

====

Reported inhibition at 1 µM values for a set of compounds
- Assay system: ERK5 (Homo sapiens, UniProt Q13164)
- Construct: screened for activity against several kinases in Jurkat cells; endogenous in cells; host or cells: Jurkat cell lysate
- Sequence (Q13164 whole entry): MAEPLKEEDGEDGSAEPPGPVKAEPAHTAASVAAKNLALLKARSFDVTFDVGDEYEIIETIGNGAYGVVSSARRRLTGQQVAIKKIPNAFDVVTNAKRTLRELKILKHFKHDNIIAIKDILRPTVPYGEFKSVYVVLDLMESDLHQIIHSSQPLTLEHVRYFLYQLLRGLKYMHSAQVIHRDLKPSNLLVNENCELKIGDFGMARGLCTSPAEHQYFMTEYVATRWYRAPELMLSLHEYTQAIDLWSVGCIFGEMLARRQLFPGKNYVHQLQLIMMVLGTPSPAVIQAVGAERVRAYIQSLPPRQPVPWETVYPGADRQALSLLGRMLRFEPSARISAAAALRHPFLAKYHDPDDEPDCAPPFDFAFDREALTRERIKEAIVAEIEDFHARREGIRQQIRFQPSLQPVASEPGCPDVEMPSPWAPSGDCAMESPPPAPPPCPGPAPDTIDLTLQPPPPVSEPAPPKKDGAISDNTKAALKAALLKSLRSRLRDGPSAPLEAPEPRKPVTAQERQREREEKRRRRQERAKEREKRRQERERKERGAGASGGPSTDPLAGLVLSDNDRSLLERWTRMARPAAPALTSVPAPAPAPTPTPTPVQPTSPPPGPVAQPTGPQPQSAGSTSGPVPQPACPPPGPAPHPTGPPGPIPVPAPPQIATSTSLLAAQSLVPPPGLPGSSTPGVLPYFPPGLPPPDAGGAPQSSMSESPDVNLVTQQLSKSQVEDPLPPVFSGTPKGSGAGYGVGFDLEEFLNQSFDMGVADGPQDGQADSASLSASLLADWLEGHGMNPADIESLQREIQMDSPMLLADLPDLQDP
- Experiment summary: Probe-based (AX9989 acyl phosphate ATP probe) kinase profiling in Jurkat lysate: ERK5
- Type: binding
- Stated conditions: screening concentration 1 μM; read-out: ERK5 Inhibition % at indicated screening concentration

CCOc1cc(C(=O)N2CCC(N3CCCN(C)CC3)CC2)ccc1Nc1cc2c(cn1)N(C)C(=O)c1ccccc1N2C [Compound T31] : > 90%
CN1CCC(N2CCN(C(=O)c3ccc(Nc4cc5c(cn4)N(C)C(=O)c4ccccc4N5C)c(F)c3)CC2)CC1 [Compound T70] : > 90%
CCOc1cc(C(=O)N2CCN(C(C)=O)CC2)ccc1Nc1cc2c(cn1)N(C)C(=O)c1ccccc1N2C1CC1 [Compound T67] : > 90%
CCOc1cc(C(=O)N[C@H]2CC[C@H](O)CC2)ccc1Nc1cc2c(cn1)N(C)C(=O)c1ccccc1N2C [Compound T62] : 75 to 90%

Dear colleague, I am looking for the recorded inhibition at 1 µM of the following compound: CN1C(=O)c2ccccc2N(C)c2cc(Nc3ccc(C(=O)N4CCN(S(C)(=O)=O)CC4)cc3F)ncc21 [Compound T72] > 90%

# lookup: inhibition at 1 µM of CCOc1cc(C(=O)N[C@H]2CC[C@H](C#N)CC2)ccc1Nc1cc2c(cn1)N(C)C(=O)c1ccccc1N2C [Compound T59] 50 to 75%

Entry CCOc1cc(C(=O)N2CC[C@H](C#N)C2)ccc1Nc1cc2c(cn1)N(C)C(=O)c1ccccc1N2C [Compound T22] has what inhibition at 1 µM? > 90%

Returns the measured inhibition at 1 µM for the input compound. Input: CN1CCC(N2CCN(C(=O)c3ccc(Nc4cc5c(cn4)N(C)C(=O)c4ccccc4N5C)c(OC(F)F)c3)CC2)CC1 [Compound T76] > 90%

====

Listed compounds paired with reported inhibition at 10 µM
- Assay system: BRD4 bromodomain domain I [BRD4(1)] (Homo sapiens, UniProt O60885)
- Construct: BRD4 bromodomain domain I [BRD4(1)]; purchased Cayman Chemicals
- Experiment summary: BRD4 bromodomain domain 1 inhibition assay (TR-FRET)
- Assay type: binding
- Stated conditions: screening concentration 10 μM

CCOc1cc(C(=O)N2CC[C@@H](N(CC)CC)C2)ccc1Nc1cc2c(cn1)N(C)C(=O)c1occc1N2C [Compound 67] : > 85%
CN1CCC(N2CCN(C(=O)c3ccc(Nc4cc5c(cn4)N(C)C(=O)c4ccccc4N5C)c(F)c3)CC2)CC1 [Compound T70] : < 70%
CCOc1cc(C(=O)N2CCC(N3CCN(C)CC3)CC2)ccc1Nc1cc2c(cn1)N(C)C(=O)c1ncccc1N2C [Compound 40] : < 70%
CCOc1cc(C(=O)N2CCC[C@H](O)C2)ccc1Nc1cc2c(cn1)N(C)C(=O)c1ccccc1N2C [Compound 96] : > 85%
COc1c(Nc2cc3c(cn2)N(C)C(=O)c2ccccc2N3C)cccc1C(=O)O [Compound 9] : < 70%

# inhibition at 10 µM lookup, item CCOc1cc(C(=O)N2CCC(N3CC[C@@H](O)C3)CC2)ccc1Nc1cc2c(cn1)N(C)C(=O)c1ccccc1N2C [Compound T10] > 85%

Sample CCOc1cc(C(=O)N(CC)CCN(CC)CC)ccc1Nc1cc2c(cn1)N(C)C(=O)c1ccccc1N2C [Compound 122] — what was its inhibition at 10 µM? 70 to 85%

Which inhibition at 10 µM reading was recorded for the compound CN1C(=O)c2ccccc2N(C)c2cc(N[C@H]3CC[C@H](O)CC3)ncc21 [Compound 33] ? < 70%

What does the data say about its inhibition at 10 µM? Entry: CCOc1cc(C(=O)N2CC(N3CCCCC3)C2)ccc1Nc1cc2c(cn1)N(C)C(=O)c1ccccc1N2C [Compound 114] > 85%

====

// reported inhibition at 10 µM per item
- System: human Th17 cells
- Experiment summary: Cytokine response by in vitro-polarized human Th17 cells stimulated with PMA/ionomycin
- Format: cell-based
- Stated conditions: 10 μM compound, PMA/ionomycin 20 h, read-out: Percent inhibition of IL-4 (relative to DMSO control)
Quick note: give the figure in %, leave out the unit.

CCOc1cc(C(=O)NCC2CC2)ccc1Nc1cc2c(cn1)N(C)C(=O)c1ccccc1N2C [Compound 57] : -11.8
CCOc1cc(C(=O)N2CCC(N3CCCC3)CC2)ccc1Nc1cc2c(cn1)N(C)C(=O)c1ccccc1N2C [Compound 46] : -2.8
CCOc1cc(C(=O)N2CCNCC2)ccc1Nc1cc2c(cn1)N(C)C(=O)c1ccccc1N2C [Compound 62] : -17
CCOc1cc(C(=O)N2CCC(N3CCN(C)CC3)CC2)ccc1Nc1cc2c(cn1)N(C)C(=O)c1occc1N2C [Compound 65] : 4.6
CCOc1cc(C(=O)N2CCC(N3CCN(C)CC3)CC2)ccc1Nc1cc2c(cn1)N(C)C(=O)c1ccccc1N2C [Compound 61] : -19.5

--- query ---
Can you look up the measured inhibition at 10 µM of CCOc1cc(C(=O)N2CC[C@@H](N(C)C)C2)ccc1Nc1cc2c(cn1)N(C)C(=O)c1ccccc1N2C [Compound 115] for me? 1.5

====

- Assay system: BRD2 (Homo sapiens)
- Construct: read out by qPCR of the phage DNA
- Sequence (P25440 whole entry): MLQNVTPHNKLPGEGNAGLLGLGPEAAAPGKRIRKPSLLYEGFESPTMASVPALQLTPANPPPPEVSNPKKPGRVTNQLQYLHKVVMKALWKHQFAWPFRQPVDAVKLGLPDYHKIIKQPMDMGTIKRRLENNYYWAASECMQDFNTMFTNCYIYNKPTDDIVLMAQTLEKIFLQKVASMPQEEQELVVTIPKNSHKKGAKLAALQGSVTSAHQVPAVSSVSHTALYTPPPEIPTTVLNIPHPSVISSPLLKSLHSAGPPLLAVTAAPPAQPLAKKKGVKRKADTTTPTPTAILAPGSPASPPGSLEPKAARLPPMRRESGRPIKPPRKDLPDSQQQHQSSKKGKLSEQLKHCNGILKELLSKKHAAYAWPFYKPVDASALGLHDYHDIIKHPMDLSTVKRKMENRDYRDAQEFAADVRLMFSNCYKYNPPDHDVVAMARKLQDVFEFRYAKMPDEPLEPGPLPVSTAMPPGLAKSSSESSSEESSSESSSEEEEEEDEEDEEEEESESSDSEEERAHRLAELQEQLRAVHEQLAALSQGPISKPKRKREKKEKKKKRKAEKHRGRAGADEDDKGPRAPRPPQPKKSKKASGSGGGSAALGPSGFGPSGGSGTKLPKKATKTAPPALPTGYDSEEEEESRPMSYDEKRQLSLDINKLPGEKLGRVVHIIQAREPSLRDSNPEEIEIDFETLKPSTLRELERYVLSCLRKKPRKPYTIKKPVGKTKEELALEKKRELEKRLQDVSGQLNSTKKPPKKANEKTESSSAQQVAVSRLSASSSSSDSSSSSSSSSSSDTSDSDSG
- Experiment summary: Bromodomain binding assay: BRD2
Measured Kd by item
Write it as a number; the unit nM goes unstated.

CCOc1cc(C(=O)N[C@H]2CC[C@H](O)CC2)ccc1Nc1cc2c(cn1)N(C)C(=O)c1ccccc1N2C : 93

Pending molecule:
Form field: reported Kd of "CCOc1cc(C(=O)N2CCC(N3CCCC3)CC2)ccc1Nc1cc2c(cn1)N(C)C(=O)c1ccccc1N2C" 55
